target: Integrin alpha-IIb/beta-3 (Homo sapiens, UniProt P05106+P08514); assay: Inhibition of FITC-labeled fibrinogen binding to integrin alpha2bbeta3 receptor in human platelets by flow cytometry
Sequence (P05106 27-788 limits assumed): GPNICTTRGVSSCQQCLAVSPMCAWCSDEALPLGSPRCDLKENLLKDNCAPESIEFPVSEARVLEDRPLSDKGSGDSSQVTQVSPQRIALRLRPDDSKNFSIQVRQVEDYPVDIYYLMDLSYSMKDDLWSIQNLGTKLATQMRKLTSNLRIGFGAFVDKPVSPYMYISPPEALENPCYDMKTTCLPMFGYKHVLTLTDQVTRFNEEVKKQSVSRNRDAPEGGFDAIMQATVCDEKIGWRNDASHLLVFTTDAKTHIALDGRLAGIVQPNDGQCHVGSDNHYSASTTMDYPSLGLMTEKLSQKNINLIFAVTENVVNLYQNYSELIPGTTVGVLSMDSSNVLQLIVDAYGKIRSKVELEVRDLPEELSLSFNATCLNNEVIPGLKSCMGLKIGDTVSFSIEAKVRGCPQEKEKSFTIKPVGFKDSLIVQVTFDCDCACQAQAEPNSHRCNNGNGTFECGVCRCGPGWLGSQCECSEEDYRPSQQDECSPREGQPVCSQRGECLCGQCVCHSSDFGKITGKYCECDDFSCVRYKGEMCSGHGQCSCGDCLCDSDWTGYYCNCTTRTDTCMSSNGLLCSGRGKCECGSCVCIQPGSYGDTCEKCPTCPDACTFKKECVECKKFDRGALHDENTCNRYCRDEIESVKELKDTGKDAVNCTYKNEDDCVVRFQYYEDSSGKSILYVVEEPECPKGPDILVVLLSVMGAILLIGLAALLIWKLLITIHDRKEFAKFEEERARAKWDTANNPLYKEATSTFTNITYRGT
Sequence (P08514 32-887 limits assumed): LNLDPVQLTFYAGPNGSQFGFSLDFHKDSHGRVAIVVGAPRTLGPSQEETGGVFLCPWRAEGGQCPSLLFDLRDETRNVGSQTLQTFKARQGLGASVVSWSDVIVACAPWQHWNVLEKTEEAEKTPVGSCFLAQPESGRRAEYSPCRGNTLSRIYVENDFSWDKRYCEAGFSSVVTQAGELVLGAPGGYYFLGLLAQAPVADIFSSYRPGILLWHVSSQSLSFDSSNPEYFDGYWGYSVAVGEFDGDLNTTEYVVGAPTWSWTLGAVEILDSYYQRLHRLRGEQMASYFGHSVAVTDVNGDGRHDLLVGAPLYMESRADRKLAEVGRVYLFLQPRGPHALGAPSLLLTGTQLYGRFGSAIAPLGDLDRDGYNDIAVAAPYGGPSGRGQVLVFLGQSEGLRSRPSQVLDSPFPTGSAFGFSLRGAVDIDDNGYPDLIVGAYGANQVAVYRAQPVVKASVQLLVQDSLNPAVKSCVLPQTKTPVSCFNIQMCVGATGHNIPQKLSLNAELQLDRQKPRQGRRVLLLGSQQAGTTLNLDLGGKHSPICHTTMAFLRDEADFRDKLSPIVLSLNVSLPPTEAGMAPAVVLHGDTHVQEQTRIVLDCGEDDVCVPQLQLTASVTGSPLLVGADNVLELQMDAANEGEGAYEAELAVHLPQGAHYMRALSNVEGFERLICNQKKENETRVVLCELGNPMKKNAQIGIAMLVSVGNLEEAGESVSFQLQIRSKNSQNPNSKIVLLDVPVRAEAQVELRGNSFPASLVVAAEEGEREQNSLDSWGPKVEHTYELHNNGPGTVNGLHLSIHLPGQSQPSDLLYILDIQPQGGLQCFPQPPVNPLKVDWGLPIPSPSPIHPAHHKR
Sequence (P08514 891-1039 limits assumed): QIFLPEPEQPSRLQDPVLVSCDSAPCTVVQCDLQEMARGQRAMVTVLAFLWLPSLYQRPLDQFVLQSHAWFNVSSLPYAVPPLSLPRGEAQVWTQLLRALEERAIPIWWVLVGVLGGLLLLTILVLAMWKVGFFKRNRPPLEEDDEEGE
pIC50: −log10 of the molar value.
# maps each entry to its pIC50

Compound	pIC50
CC(CC(=O)O)N1Cc2ccc(NC(=O)c3ccc4c(c3)CNCC4)cc2C1=O (racemic)	8.19
CC(CC(=O)O)N1Cc2ccc(NC(=O)c3ccc(N4CCNCC4)cc3)cc2C1=O (racemic)	7.43
CC(CC(=O)O)N1Cc2ccc(NC(=O)CCCC3CCNCC3)cc2C1=O (racemic)	6.46
O=C(O)CCN1Cc2ccc(NC(=O)c3ccc4c(c3)CNCC4)cc2C1=O	8.19
O=C(O)CN1Cc2ccc(NC(=O)c3ccc(C4CCNCC4)cc3)cc2C1=O	6.57
O=C(O)CN1Cc2ccc(NC(=O)c3ccc4c(c3)CNCC4)cc2C1=O	5.92
O=C(O)CCN1Cc2ccc(NC(=O)CCCC3CCNCC3)cc2C1=O	8.26
O=C(O)CCN1Cc2ccc(NC(=O)c3ccc(C4CCNCC4)cc3)cc2C1=O	8.17

---

# IC50 values compiled below
tested on: Platelet; test: Inhibition of ADP-induced human platelet aggregation in platelet-rich plasma by Born's method; type: functional

Molecule	IC50, nM
O=C(O)CCN1Cc2ccc(NC(=O)c3cccc(N4CCNCC4)c3)cc2C1=O	2700
O=C(O)CCN1Cc2ccc(NC(=O)CC3CCNCC3)cc2C1=O	7400
O=C(O)CCCN1Cc2ccc(NC(=O)CC3CCNCC3)cc2C1=O	1800
O=C(O)CN1Cc2ccc(NC(=O)CC3CCNCC3)cc2C1=O	51000
CC(CC(=O)O)N1Cc2ccc(NC(=O)c3cccc(N4CCNCC4)c3)cc2C1=O (racemic)	62000
CCCCS(=O)(=O)N[C@@H](Cc1ccc(OCCCCC2CCNCC2)cc1)C(=O)O	32
O=C(O)CN1Cc2ccc(NC(=O)c3ccc(N4CCNCC4)cc3)cc2C1=O	3300
CC(CC(=O)O)N1Cc2ccc(NC(=O)CC3CCNCC3)cc2C1=O (racemic)	2700
